- Assayed target: PD-1-Ig binding to PD-L1-TVMV-His (PD-L1-His) (Homo sapiens (Human), UniProt Q9NZQ7)
- Sequence (Q9NZQ7 other isoform, or with tags, fused parts or gaps): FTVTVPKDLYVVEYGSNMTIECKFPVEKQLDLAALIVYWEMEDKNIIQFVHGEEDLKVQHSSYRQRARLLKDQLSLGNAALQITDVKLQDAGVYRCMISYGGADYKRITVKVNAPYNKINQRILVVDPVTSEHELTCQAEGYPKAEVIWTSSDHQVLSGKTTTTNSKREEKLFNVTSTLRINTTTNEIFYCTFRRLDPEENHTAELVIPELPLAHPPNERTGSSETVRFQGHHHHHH
- Experiment notes: PD-1/PD-L1 Homogenous Time-Resolved Fluorescence (HTRF) binding assay
- Condition context: PD-1-Ig/PD-L1-His binding; value given as range class; read-out: HTRF IC50 (μM) or Range
Form field: IC50 (one value per entry).

Smiles representation: C[C@H]1C(=O)N[C@@H](CC(=O)O)C(=O)N2CCC[C@H]2C(=O)N[C@@H](CN)C(=O)N[C@@H](CCC(=O)O)C(=O)N2C[C@H](O)C[C@H]2C(=O)N[C@@H](Cc2c[nH]c3ccccc23)C(=O)N[C@@H](CO)C(=O)N[C@@H](Cc2c[nH]c3ccccc23)C(=O)N(C)[C@H]2CCCC/C=C\CCCC[C@@H](C(=O)N[C@@H](CCC(=O)O)C(=O)N[C@H](C(=O)NCC(N)=O)CSCC(=O)N[C@@H](Cc3ccc(O)cc3)C(=O)N1C)N(C)C2=O
IC50: 0.002 to 0.0099 µM
--
Smiles representation: CN1C(=O)[C@H](Cc2cn(CC(=O)O)c3ccccc23)NC(=O)[C@H](CCN)NC(=O)[C@H](Cc2c[nH]c3ccccc23)NC(=O)[C@@H]2C[C@@H](O)CN2C(=O)[C@H](CCC(=O)O)NC(=O)[C@H](CN)NC(=O)[C@@H]2CCCN2C(=O)[C@H](CC(=O)O)NC(=O)[C@H]2CCCCN2C(=O)[C@H](Cc2ccc(O)cc2)NC(=O)CSC[C@@H](C(=O)NCC(N)=O)NC(=O)[C@H](CCC(=O)O)NC(=O)[C@@H]2Cc3ccc(cc3)OCC=CCCC[C@H]1C(=O)N2C
IC50: 0.01 to 0.099 µM
--
Smiles representation: C[C@@H]1NC(=O)[C@@H]2CCCC/C=C\CCCC[C@@H](C(=O)N2C)N(C)C(=O)[C@H](Cc2c[nH]c3ccccc23)NC(=O)[C@H](CO)NC(=O)[C@H](Cc2c[nH]c3ccccc23)NC(=O)[C@@H]2C[C@@H](O)CN2C(=O)[C@H](CCC(N)=O)NC(=O)[C@H](CN)NC(=O)[C@@H]2CCCN2C(=O)[C@H](CC(=O)O)NC(=O)[C@H](C)N(C)C(=O)[C@H](Cc2ccc(O)cc2)NC(=O)CSC[C@@H](C(=O)NCC(N)=O)NC1=O
IC50: 0.002 to 0.0099 µM

----------
- Assayed target: PD-1-Ig binding to PD-L1-TVMV-His (PD-L1-His) (Homo sapiens (Human), UniProt Q9NZQ7)
- Experiment notes: PD-1/PD-L1 Homogenous Time-Resolved Fluorescence (HTRF) binding assay
- Condition context: PD-1-Ig/PD-L1-His binding; value given as range class; read-out: HTRF IC50 (μM) or Range
Measured IC50 accompanies every entry in the list below.

Compound: C[C@H]1C(=O)N[C@@H](CC(=O)O)C(=O)N2CCC[C@H]2C(=O)N[C@@H](CN)C(=O)N[C@@H](CCC(=O)O)C(=O)N2C[C@H](O)C[C@H]2C(=O)N[C@@H](Cc2c[nH]c3ccccc23)C(=O)N[C@@H](CO)C(=O)N[C@@H](Cc2c[nH]c3ccccc23)C(=O)N(C)[C@H]2CCC/C=C\CCCC[C@@H](C(=O)N[C@@H](CCC(=O)O)C(=O)N[C@H](C(=O)NCC(N)=O)CSCC(=O)N[C@@H](Cc3ccc(O)cc3)C(=O)N1C)N(C)C2=O [Example 1116]
IC50: 0.01 to 0.099 µM
--
Compound: CC(C)C[C@@H]1NC(=O)[C@H](Cc2c[nH]cn2)NC(=O)[C@@H]2CCCN2C(=O)[C@H](CC(N)=O)NC(=O)[C@@H]2COCCN2C(=O)[C@H](Cc2ccc(O)cc2)NC(=O)CSC[C@H](C(=O)NCC(N)=O)NC(=O)[C@@H](C)NC(=O)[C@@H]2CCC/C=C\CCC[C@@H](C(=O)N2C)N(C)C(=O)[C@H](Cc2c[nH]c3ccccc23)NC(=O)[C@H](CO)NC(=O)[C@@H](Cc2c[nH]c3ccccc23)NC(=O)[C@@H]2C[C@@H](O)CN2C1=O [Example 1110]
IC50: 0.01 to 0.099 µM
--
Compound: CN1C(=O)[C@H](Cc2csc3ccccc23)NC(=O)[C@H](CO)NC(=O)[C@H](Cc2c[nH]c3ccccc23)NC(=O)[C@@H]2C[C@@H](O)CN2C(=O)[C@H](CCC(N)=O)NC(=O)[C@H](CN)NC(=O)[C@@H]2CCCN2C(=O)[C@H](CC(=O)O)NC(=O)[C@@H]2CCCCN2C(=O)[C@H](Cc2ccc(O)cc2)NC(=O)CSC[C@@H](C(=O)NCC(N)=O)NC(=O)[C@H](CN)NC(=O)[C@@H]2CCCC/C=C\CCCC[C@H]1C(=O)N2C [Example 1119]
IC50: 0.002 to 0.0099 µM
--
Compound: C[C@H]1C(=O)N[C@@H](CC(=O)O)C(=O)N2CCC[C@H]2C(=O)N[C@@H](CN)C(=O)N[C@@H](CCC(=O)O)C(=O)N2C[C@H](O)C[C@H]2C(=O)N[C@@H](Cc2c[nH]c3ccccc23)C(=O)N[C@@H](CO)C(=O)N[C@@H](Cc2c[nH]c3ccccc23)C(=O)N(C)[C@H]2CCCC/C=C\CCCC[C@@H](C(=O)N[C@@H](CCC(=O)O)C(=O)N[C@H](C(N)=O)CSCC(=O)N[C@@H](Cc3ccc(O)cc3)C(=O)N1C)N(C)C2=O [Example 1108]
IC50: 0.002 to 0.0099 µM
--
Compound: CC(C)C[C@@H]1NC(=O)[C@H](Cc2cnc[nH]2)NC(=O)[C@@H]2CCCN2C(=O)[C@H](CC(N)=O)NC(=O)[C@H](C)N(C)C(=O)[C@H](Cc2ccc(O)cc2)NC(=O)CSC[C@@H](C(=O)NCC(N)=O)NC(=O)[C@H](CCCNC(=N)N)NC(=O)[C@@H]2CC/C=C\CC[C@@H](C(=O)N2C)N(C)C(=O)[C@H](Cc2c[nH]c3ccccc23)NC(=O)[C@H](CO)NC(=O)[C@H](Cc2c[nH]c3ccccc23)NC(=O)[C@@H]2C[C@@H](O)CN2C1=O [Example 1102]
IC50: 0.1 to 2 µM
--
Compound: CC(C)C[C@@H]1NC(=O)[C@H](CN)NC(=O)[C@@H]2CCCN2C(=O)[C@H](CC(N)=O)NC(=O)[C@H](C)N(C)C(=O)[C@H](Cc2ccc(O)cc2)NC(=O)CSC[C@H](C(=O)NCC(N)=O)NC(=O)[C@@H](C)NC(=O)[C@H]2CCC/C=C\CCC[C@@H](C(=O)N2C)N(C)C(=O)[C@H](Cc2c[nH]c3ccccc23)NC(=O)[C@H](CO)NC(=O)[C@@H](Cc2c[nH]c3ccccc23)NC(=O)[C@@H]2C[C@@H](O)CN2C1=O [Example 1106]
IC50: 0.1 to 2 µM
--
Compound: CC(C)C[C@@H]1NC(=O)[C@H](CN)NC(=O)[C@@H]2CCCN2C(=O)[C@H](CC(N)=O)NC(=O)[C@H](C)N(C)C(=O)[C@H](Cc2ccc(O)cc2)NC(=O)CSC[C@@H](C(N)=O)NC(=O)[C@H](CCCNC(=N)N)NC(=O)[C@@H]2CCCC/C=C\CCCC[C@@H](C(=O)N2C)N(C)C(=O)[C@H](Cc2c[nH]c3ccccc23)NC(=O)[C@H](CO)NC(=O)[C@H](Cc2c[nH]c3ccccc23)NC(=O)[C@@H]2C[C@@H](O)CN2C1=O [Example 1107]
IC50: 0.01 to 0.099 µM
--
Compound: CC(C)C[C@@H]1NC(=O)[C@H](Cc2cnc[nH]2)NC(=O)[C@@H]2CCCN2C(=O)[C@H](CC(N)=O)NC(=O)[C@H](C)N(C)C(=O)[C@H](Cc2ccccc2)NC(=O)CSC[C@@H](C(=O)NCC(N)=O)NC(=O)[C@H](CCCNC(=N)N)NC(=O)[C@@H]2CCCC/C=C\CCCC[C@@H](C(=O)N2C)N(C)C(=O)[C@H](Cc2c[nH]c3ccccc23)NC(=O)[C@H](CO)NC(=O)[C@H](Cc2c[nH]c3ccccc23)NC(=O)CN(C)C1=O [Example 1100]
IC50: 0.01 to 0.099 µM
